assay: physchem; type: physicochemical; settings: water; H2O, room temperature, 24 hours; read-out: Solubility in H2O
readoutName: solubility at 24 h

[
  {
    "lineNotation": "c1ccc2[nH]cnc2c1",
    "readoutName": "solubility at 24 h",
    "result": "5000 µg/mL"
  }
]

====

test: physchem; assay type: physicochemical; details: 1440 min

[
  {
    "molecule": "c1ccc2c(c1)ncn2CN1CCN(Cn2cnc3ccccc32)CC1 [BI-P]",
    "Solubility in iPrOH": "0.211 % BY WT"
  },
  {
    "molecule": "c1ccc2c(c1)nnn2CNCn1nnc2ccccc21 [BTA-A, bis(benzotriazol-1-ylmethyl) amine]",
    "Solubility in iPrOH": "0.028 % BY WT"
  },
  {
    "molecule": "c1ccc2c(c1)nnn2CN1CCN(Cn2nnc3ccccc32)CC1 [BTA-P]",
    "Solubility in iPrOH": "0.007 % BY WT"
  },
  {
    "molecule": "O=S(=O)(NCn1nnc2ccccc21)c1cccc2c(S(=O)(=O)NCn3nnc4ccccc43)cccc12 [BTA-NDSA]",
    "Solubility in iPrOH": "0.051 % BY WT"
  },
  {
    "molecule": "S=C(NCn1nnc2ccccc21)NCn1nnc2ccccc21 [BTA-TU]",
    "Solubility in iPrOH": "0.011 % BY WT"
  },
  {
    "molecule": "O=C(O)CN(Cn1nnc2ccccc21)Cn1nnc2ccccc21 [BTA-G]",
    "Solubility in iPrOH": "0.914 % BY WT"
  },
  {
    "molecule": "O=S(=O)(NCn1nnc2ccccc21)c1cccc(S(=O)(=O)NCn2nnc3ccccc32)c1 [BTA-BDSA]",
    "Solubility in iPrOH": "0.120 % BY WT"
  },
  {
    "molecule": "O=C(NCn1nnc2ccccc21)NCn1nnc2ccccc21 [BTA-U, 1,3-bis(benzotriazol-1'-ylmethyl) urea]",
    "Solubility in iPrOH": "0.08 % BY WT"
  },
  {
    "molecule": "O=C(O)c1ccc(S(=O)(=O)NCn2nnc3ccccc32)cc1 [BTA-4CBSA]",
    "Solubility in iPrOH": "0.137 % BY WT"
  },
  {
    "molecule": "ON(Cn1nnc2ccccc21)Cn1nnc2ccccc21 [BTA-NOH]",
    "Solubility in iPrOH": "1.08 % BY WT"
  },
  {
    "molecule": "O=C(NN(Cn1nnc2ccccc21)Cn1nnc2ccccc21)c1ccccc1 [BTA-HYR]",
    "Solubility in iPrOH": "0.019 % BY WT"
  },
  {
    "molecule": "c1ccc2[nH]nnc2c1 [BTA, Benzotriazole, reference compound]",
    "Solubility in iPrOH": "53.9 % BY WT"
  }
]
